target: Homeobox protein Hox-A13 (Mus musculus); assay: disruptors of Hoxa13 oligonucleotide interaction – biochemical, fluorescence polarization, labeled oligonucleotide, primary screen (AID 1185); settings: Hoxa13:DNA binding, 15 min, called active from +8 up or from −8 down
The source made the active and inactive calls.
In this exercise, the only acceptable responses are 1 = active, -1 = inactive

Previously resolved entries follow.
molecule: COC(=O)[C@@]1(Cc2ccc(F)cc2)[C@H]2c3cc(C(=O)N4CCCC4)n(CCc4ccc(OC)c(Br)c4)c3C[C@H]2CN1C(=O)c1ccccc1
group: -1
//
molecule: O=C1C2C=CC(C(O)c3cccc4ccccc34)N(n3cnnc3)C2C(=O)N1Cc1ccccc1 (stereo not drawn)
group: -1

Recorded test outcome, item `COC(=O)c1nc2oc1CC[C@@H](CO)NC(=O)N(C)Cc1cn(nn1)C[C@H](Cc1ccccc1)NC2=O`
-1

Recorded test outcome, item O=C(NCC(O)CO)[C@@]1(Cc2ccccc2)N=C(c2ccc(OCCCO)cc2)O[C@H]1c1ccccc1 (stereo partly drawn)
-1

Recorded test outcome, item `C=CCN1C(=O)[C@@]2(O[C@@H](CCO)[C@H]([Si](C)(C)c3ccc(OC)cc3)[C@H]2C)c2cc(NC(C)=O)ccc21`
-1

Recorded test outcome, item `[N-]=[N+]=Nc1ccccc1[C@@H]1OC(c2ccc(OCCCO)cc2)=N[C@]1(CCS(=O)(=O)c1ccccc1)C(=O)O`
-1

Recorded test outcome, item CC(C)OC(=O)C1=CCC(c2cccc(Cl)c2)O1 (stereo not drawn)
-1

---

experiment: probe aDKK1 binding to arrayed compounds – biochemical, biotinylated probe, 635/667 nm fluorescence, primary screen (AID 1099); details: small-molecule microarray, higher = more signal;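 note: score merges 667nm spot fluorescence with signal to noise across triplicate slides; reference of the scale not given here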
We use -0.08 as the dividing line for composite z-score: on or above the line is true, below is false.

Previously resolved entries follow.
compound: CN1C(=O)C2C=CC(C(O)C=Cc3ccc([N+](=O)[O-])cc3)N(N3CCCCC3)C2C1=O (configuration not stated)
group: true

compound: CCOC(=O)C[C@H]1[C@H](OC(=O)c2ccc(C(=O)c3ccccc3)cc2)[C@@H](NC(=O)c2ccc3ccccc3n2)c2cc(OCCCO)ccc2N1C(=O)c1ccc2ccccc2n1
group: true

Could you verify whether the entry O=C1C2C=CC(C(O)c3ccccn3)N(Nc3ccccc3F)C2C(=O)N1c1ccccc1 (configuration not stated) shows composite z-score of no less than -0.08?
true

Could you verify whether the entry CS(=O)(=O)CCOC(=O)C1=CC(c2ccc(CO)cc2)=CC(c2cccs2)N(Cc2cccc(OC(F)(F)F)c2)C=C1C(=O)OCCS(C)(=O)=O (configuration not stated) shows composite z-score of no less than -0.08?
true

Could you verify whether the entry `COc1ccc([Si](C)(C)[C@H]2[C@H](CC(=O)N3CCC[C@H]3CO)O[C@@]3(C(=O)N(c4ccccc4)c4ccccc43)[C@@H]2C)cc1` shows composite z-score of no less than -0.08?
false

Could you verify whether the entry `COc1ccc([Si](C)(C)[C@@H]2[C@@H](CC(=O)N3Cc4ccccc4C[C@H]3CO)O[C@]3(C(=O)N(Cc4cccc(N5C(=O)COc6ccccc65)c4)c4ccccc43)[C@H]2C)cc1` shows composite z-score of no less than -0.08?
true

Could you verify whether the entry `O=C1O[C@H](c2ccccc2)[C@H](c2ccccc2)N2[C@H]1[C@@H](C(=O)Nc1nc3ccccc3s1)[C@]1(C(=O)Nc3ccc(C#CC4=CCCCC4)cc31)[C@H]2c1ccc(OCCO)cc1` shows composite z-score of no less than -0.08?
true

Could you verify whether the entry `COCCOC(=O)N1C(=O)[C@@]2(c3cc(C#CC4=CCCCC4)ccc31)[C@H](C(=O)N1CCN(c3ncccn3)CC1)[C@H]1C(=O)O[C@H](c3ccccc3)[C@H](c3ccccc3)N1[C@@H]2c1ccc(OCCO)cc1` shows composite z-score of no less than -0.08?
true

Could you verify whether the entry `C=C(COC)/C(=C/C[C@H](OC(C)=O)c1ccccc1OCCO)c1cnc2ccccc2c1` shows composite z-score of no less than -0.08?
true

Could you verify whether the entry CC1CC/C=C\[C@H]2OC34C=CCN(Cn5nnc6ccccc65)C(=O)[C@H]3N(CCCO)C(=O)[C@@H]4C2C(=O)O1 (some centres not stated) shows composite z-score of no less than -0.08?
false

Could you verify whether the entry `COC(=O)c1c2oc(c1C(=O)OC)C(=O)N[C@H](Cc1ccccc1)Cn1nncc1C1(CCCCC1)NC(=O)N[C@H](CO)CC2` shows composite z-score of no less than -0.08?
true

Could you verify whether the entry `Cc1ccc(F)cc1S(=O)(=O)N[C@@H]1CCN(Cc2ccc(C(F)(F)F)cc2)C1` shows composite z-score of no less than -0.08?
true

Could you verify whether the entry `COC(=O)[C@@]1(Cc2ccccc2)[C@H]2c3cc(C(=O)N(C)C)n(Cc4ccccc4)c3C[C@H]2CN1C(=O)c1ccccc1` shows composite z-score of no less than -0.08?
true

Could you verify whether the entry `C=C(/C(=C/C[C@@H](OC(=O)c1ccncc1)c1ccc(CO)o1)c1cc(C(=O)OC)ccc1OC)C(C)C` shows composite z-score of no less than -0.08?
true

Could you verify whether the entry `O=C1O[C@@H](c2ccccc2)[C@@H](c2ccccc2)N2[C@@H](c3ccc(O)cc3)[C@]3(C(=O)Nc4ccc(C#CCCO)cc43)[C@@H](C(=O)N3CCCCCCC3)[C@H]12` shows composite z-score of no less than -0.08?
true
